# Test system: HCT-29
# test_protocol: Cytotoxicity against human HCT29 cells after 4 days by MTT assay
# Type: functional, cell-based
# settings: HCT-29, 96 h
pIC50: −log10 of the molar value.
Classification field: enter True for pIC50 values not below 5, False for values below it.

                              smiles_record  label
0  COc1ccc(Cn2c(-c3ccc(C(=O)N4CCN(S(=O)(=O)c5ccc(OC)cc5)CC4)cc3)nc3ccccc3c2=O)cc1   True
1  COc1ccc(S(=O)(=O)N2CCN(C(=O)c3ccc(-c4nc5ccccc5c(=O)n4Cc4ccccc4)cc3)CC2)cc1  False
2  O=C(c1ccc(-c2nc3ccccc3c(=O)[nH]2)cc1)N1CCN(S(=O)(=O)c2ccc(Cl)cc2)CC1  False
3  O=C(c1ccc(-c2nc3ccccc3c(=O)[nH]2)cc1)N1CCN(S(=O)(=O)Cc2ccccc2)CC1   True
4    O=C(O)c1ccc(-c2nc3ccccc3c(=O)[nH]2)cc1  False
5  O=C(c1ccc(-c2nc3ccccc3c(=O)[nH]2)cc1)N1CCN(S(=O)(=O)c2ccc([N+](=O)[O-])cc2)CC1   True
